# Tested on: FYN (human)
# Procedure summary: KINOMEscan competition binding
# Condition info: compound 10.0 µM

>  <Smiles data>
COc1ccc(CNC(=O)Nc2ncc([N+](=O)[O-])s2)cc1

>  <kinase still bound, per cent of control [%]>
87

$$$$
>  <Smiles data>
O=C1Nc2cc(Br)ccc2/C1=C1/Nc2ccccc2/C1=N\O

>  <kinase still bound, per cent of control [%]>
1.6

$$$$
>  <Smiles data>
Cc1cnc(-c2cnc(NCCNc3ccc(C#N)cn3)nc2-c2ccc(Cl)cc2Cl)[nH]1

>  <kinase still bound, per cent of control [%]>
100

$$$$
>  <Smiles data>
Cn1cc(C2=C(c3ccc(Cl)cc3Cl)C(=O)NC2=O)c2ccccc21

>  <kinase still bound, per cent of control [%]>
96

$$$$

----------
# Tested on: UniProtKB P45984
# Sequence (P45984 whole entry, looked up): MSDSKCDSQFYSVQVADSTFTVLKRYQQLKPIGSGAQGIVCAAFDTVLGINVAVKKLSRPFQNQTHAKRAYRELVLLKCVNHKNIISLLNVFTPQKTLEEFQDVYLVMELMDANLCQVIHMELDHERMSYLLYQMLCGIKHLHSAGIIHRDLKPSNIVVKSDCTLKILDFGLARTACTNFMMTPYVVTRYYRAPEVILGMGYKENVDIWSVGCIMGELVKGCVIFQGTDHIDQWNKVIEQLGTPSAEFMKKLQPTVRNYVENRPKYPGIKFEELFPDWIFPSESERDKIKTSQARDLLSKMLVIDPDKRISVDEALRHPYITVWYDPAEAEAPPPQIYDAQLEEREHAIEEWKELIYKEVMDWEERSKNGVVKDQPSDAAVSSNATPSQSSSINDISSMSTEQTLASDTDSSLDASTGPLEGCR
# Procedure summary: KINOMEscan competition binding
# Condition info: compound 10.0 µM
Property label: kinase still bound, per cent of control (%)

>  <Smiles data>
O=C1Nc2cc(Br)ccc2/C1=C1/Nc2ccccc2/C1=N\O

>  <Test result>
63

$$$$
>  <Smiles data>
COc1ccc(CNC(=O)Nc2ncc([N+](=O)[O-])s2)cc1

>  <Test result>
84

$$$$
>  <Smiles data>
Cn1cc(C2=C(c3ccc(Cl)cc3Cl)C(=O)NC2=O)c2ccccc21

>  <Test result>
59

$$$$
>  <Smiles data>
Cc1cnc(-c2cnc(NCCNc3ccc(C#N)cn3)nc2-c2ccc(Cl)cc2Cl)[nH]1

>  <Test result>
87

$$$$

----------
# Tested on: PKMYT1 (human) (UniProt Q99640)
# Procedure summary: KINOMEscan competition binding
# Condition info: compound 10.0 µM
We begin with a simple list: items and their reported kinase still bound, per cent of control.
Property label: kinase still bound, per cent of control

>  <Smiles data>
O=C1Nc2cc(Br)ccc2/C1=C1/Nc2ccccc2/C1=N\O

>  <Test result>
90%

$$$$
>  <Smiles data>
COc1ccc(CNC(=O)Nc2ncc([N+](=O)[O-])s2)cc1

>  <Test result>
53%

$$$$
>  <Smiles data>
Cn1cc(C2=C(c3ccc(Cl)cc3Cl)C(=O)NC2=O)c2ccccc21

>  <Test result>
100%

$$$$
>  <Smiles data>
Cc1cnc(-c2cnc(NCCNc3ccc(C#N)cn3)nc2-c2ccc(Cl)cc2Cl)[nH]1

>  <Test result>
100%

$$$$

----------
# Tested on: STK25 (human) (UniProt O00506)
# Sequence (O00506 whole entry, looked up): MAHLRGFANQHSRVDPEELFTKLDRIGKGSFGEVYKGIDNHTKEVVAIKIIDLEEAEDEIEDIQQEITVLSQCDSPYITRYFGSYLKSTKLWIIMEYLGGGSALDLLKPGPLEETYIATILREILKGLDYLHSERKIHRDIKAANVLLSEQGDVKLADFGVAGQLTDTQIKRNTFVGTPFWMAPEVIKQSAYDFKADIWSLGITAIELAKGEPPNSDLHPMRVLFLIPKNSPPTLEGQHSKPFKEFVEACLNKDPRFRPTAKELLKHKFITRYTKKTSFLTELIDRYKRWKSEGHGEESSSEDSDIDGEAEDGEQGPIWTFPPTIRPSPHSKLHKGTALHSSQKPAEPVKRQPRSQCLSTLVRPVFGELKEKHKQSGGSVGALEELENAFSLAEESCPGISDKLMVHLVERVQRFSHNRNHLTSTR
# Procedure summary: KINOMEscan competition binding
# Condition info: compound 10.0 µM
# reported kinase still bound, per cent of control; entries follow
Property label: kinase still bound, per cent of control (%)

>  <Smiles data>
Cc1cnc(-c2cnc(NCCNc3ccc(C#N)cn3)nc2-c2ccc(Cl)cc2Cl)[nH]1

>  <Unit string>
%

>  <Test result>
90

$$$$
>  <Smiles data>
COc1ccc(CNC(=O)Nc2ncc([N+](=O)[O-])s2)cc1

>  <Unit string>
%

>  <Test result>
100

$$$$
>  <Smiles data>
O=C1Nc2cc(Br)ccc2/C1=C1/Nc2ccccc2/C1=N\O

>  <Unit string>
%

>  <Test result>
18

$$$$
>  <Smiles data>
Cn1cc(C2=C(c3ccc(Cl)cc3Cl)C(=O)NC2=O)c2ccccc21

>  <Unit string>
%

>  <Test result>
76

$$$$

----------
Measured kinase still bound, per cent of control values are reported for all entries that follow.
# Tested on: TNIK (human) (UniProt Q9UKE5)
# Procedure summary: KINOMEscan competition binding
# Condition info: compound 10.0 µM
Property label: kinase still bound, per cent of control

>  <Smiles data>
Cc1cnc(-c2cnc(NCCNc3ccc(C#N)cn3)nc2-c2ccc(Cl)cc2Cl)[nH]1

>  <Test result>
96%

$$$$
>  <Smiles data>
Cn1cc(C2=C(c3ccc(Cl)cc3Cl)C(=O)NC2=O)c2ccccc21

>  <Test result>
68%

$$$$
>  <Smiles data>
COc1ccc(CNC(=O)Nc2ncc([N+](=O)[O-])s2)cc1

>  <Test result>
100%

$$$$
>  <Smiles data>
O=C1Nc2cc(Br)ccc2/C1=C1/Nc2ccccc2/C1=N\O

>  <Test result>
4.6%

$$$$

----------
Catalogue of compounds with associated kinase still bound, per cent of control
# Tested on: FES (human) (UniProt P07332)
# Sequence (P07332 whole entry, looked up): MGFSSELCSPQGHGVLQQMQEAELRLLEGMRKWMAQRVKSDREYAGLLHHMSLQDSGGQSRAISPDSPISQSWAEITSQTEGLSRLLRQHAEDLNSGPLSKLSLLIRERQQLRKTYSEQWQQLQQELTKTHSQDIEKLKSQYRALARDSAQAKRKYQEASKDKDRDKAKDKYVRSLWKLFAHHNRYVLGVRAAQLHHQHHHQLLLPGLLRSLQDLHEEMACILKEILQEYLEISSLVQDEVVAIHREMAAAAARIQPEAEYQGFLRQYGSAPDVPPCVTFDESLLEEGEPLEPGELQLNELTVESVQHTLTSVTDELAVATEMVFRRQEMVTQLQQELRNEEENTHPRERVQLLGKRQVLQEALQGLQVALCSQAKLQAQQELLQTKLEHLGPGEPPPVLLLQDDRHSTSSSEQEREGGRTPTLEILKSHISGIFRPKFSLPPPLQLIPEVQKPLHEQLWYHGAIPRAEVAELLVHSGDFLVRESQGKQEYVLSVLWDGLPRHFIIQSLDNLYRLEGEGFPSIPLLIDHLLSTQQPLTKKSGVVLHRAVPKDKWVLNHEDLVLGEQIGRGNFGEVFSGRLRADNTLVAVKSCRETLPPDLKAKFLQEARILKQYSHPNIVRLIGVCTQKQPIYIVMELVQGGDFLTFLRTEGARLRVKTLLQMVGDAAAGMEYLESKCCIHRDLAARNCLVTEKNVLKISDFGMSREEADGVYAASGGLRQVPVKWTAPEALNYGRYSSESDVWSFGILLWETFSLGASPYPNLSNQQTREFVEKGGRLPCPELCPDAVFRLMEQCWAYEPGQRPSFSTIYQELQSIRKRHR
# Procedure summary: KINOMEscan competition binding
# Condition info: compound 10.0 µM

>  <Smiles data>
Cc1cnc(-c2cnc(NCCNc3ccc(C#N)cn3)nc2-c2ccc(Cl)cc2Cl)[nH]1

>  <Unit string>
%

>  <kinase still bound, per cent of control>
100

$$$$
>  <Smiles data>
COc1ccc(CNC(=O)Nc2ncc([N+](=O)[O-])s2)cc1

>  <Unit string>
%

>  <kinase still bound, per cent of control>
99

$$$$
>  <Smiles data>
O=C1Nc2cc(Br)ccc2/C1=C1/Nc2ccccc2/C1=N\O

>  <Unit string>
%

>  <kinase still bound, per cent of control>
100

$$$$
>  <Smiles data>
Cn1cc(C2=C(c3ccc(Cl)cc3Cl)C(=O)NC2=O)c2ccccc21

>  <Unit string>
%

>  <kinase still bound, per cent of control>
100

$$$$

----------
# Tested on: BMPR2 (human) (UniProt Q13873)
# Procedure summary: KINOMEscan competition binding
# Condition info: compound 10.0 µM

>  <Smiles data>
Cn1cc(C2=C(c3ccc(Cl)cc3Cl)C(=O)NC2=O)c2ccccc21

>  <Tested on>
BMPR2 (human) (UniProt Q13873)

>  <kinase still bound, per cent of control, %>
100

$$$$
>  <Smiles data>
COc1ccc(CNC(=O)Nc2ncc([N+](=O)[O-])s2)cc1

>  <Tested on>
BMPR2 (human) (UniProt Q13873)

>  <kinase still bound, per cent of control, %>
100

$$$$
>  <Smiles data>
Cc1cnc(-c2cnc(NCCNc3ccc(C#N)cn3)nc2-c2ccc(Cl)cc2Cl)[nH]1

>  <Tested on>
BMPR2 (human) (UniProt Q13873)

>  <kinase still bound, per cent of control, %>
90

$$$$
>  <Smiles data>
O=C1Nc2cc(Br)ccc2/C1=C1/Nc2ccccc2/C1=N\O

>  <Tested on>
BMPR2 (human) (UniProt Q13873)

>  <kinase still bound, per cent of control, %>
46

$$$$

----------
Below: a set of entries, each annotated with reported kinase still bound, per cent of control.
# Tested on: NEK1 (human) (UniProt Q96PY6)
# Sequence (Q96PY6 whole entry, looked up): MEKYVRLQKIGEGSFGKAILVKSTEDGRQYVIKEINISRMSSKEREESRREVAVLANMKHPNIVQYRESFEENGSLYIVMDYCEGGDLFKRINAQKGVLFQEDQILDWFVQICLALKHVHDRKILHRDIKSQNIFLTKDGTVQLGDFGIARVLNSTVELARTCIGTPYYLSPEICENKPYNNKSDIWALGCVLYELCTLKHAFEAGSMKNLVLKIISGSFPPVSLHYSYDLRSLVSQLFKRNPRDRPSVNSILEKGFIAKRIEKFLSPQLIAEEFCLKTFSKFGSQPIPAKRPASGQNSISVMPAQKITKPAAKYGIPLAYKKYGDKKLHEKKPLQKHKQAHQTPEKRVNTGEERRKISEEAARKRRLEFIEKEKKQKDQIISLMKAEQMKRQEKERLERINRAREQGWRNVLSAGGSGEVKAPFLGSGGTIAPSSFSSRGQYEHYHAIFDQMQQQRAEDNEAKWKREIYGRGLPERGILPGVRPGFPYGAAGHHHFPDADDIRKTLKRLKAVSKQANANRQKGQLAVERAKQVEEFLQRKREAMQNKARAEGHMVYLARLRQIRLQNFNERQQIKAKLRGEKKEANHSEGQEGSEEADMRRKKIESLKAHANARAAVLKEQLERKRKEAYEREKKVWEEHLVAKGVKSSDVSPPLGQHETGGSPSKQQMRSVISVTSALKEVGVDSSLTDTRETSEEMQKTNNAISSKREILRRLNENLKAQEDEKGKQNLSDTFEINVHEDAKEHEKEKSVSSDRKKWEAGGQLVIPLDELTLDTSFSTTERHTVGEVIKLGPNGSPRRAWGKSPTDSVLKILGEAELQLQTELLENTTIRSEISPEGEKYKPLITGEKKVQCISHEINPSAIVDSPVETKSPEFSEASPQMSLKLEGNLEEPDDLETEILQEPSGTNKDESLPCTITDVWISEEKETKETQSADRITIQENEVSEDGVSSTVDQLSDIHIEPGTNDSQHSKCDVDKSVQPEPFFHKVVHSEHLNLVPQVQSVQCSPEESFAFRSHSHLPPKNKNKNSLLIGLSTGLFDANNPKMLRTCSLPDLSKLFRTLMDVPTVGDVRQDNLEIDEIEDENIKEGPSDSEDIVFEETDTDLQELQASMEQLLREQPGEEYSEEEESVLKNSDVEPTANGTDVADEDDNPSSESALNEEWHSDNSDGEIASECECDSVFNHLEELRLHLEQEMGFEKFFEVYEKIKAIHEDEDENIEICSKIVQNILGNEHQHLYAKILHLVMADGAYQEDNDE
# Procedure summary: KINOMEscan competition binding
# Condition info: compound 10.0 µM

>  <Smiles data>
Cn1cc(C2=C(c3ccc(Cl)cc3Cl)C(=O)NC2=O)c2ccccc21

>  <Tested on>
NEK1 (human) (UniProt Q96PY6)

>  <Unit string>
%

>  <kinase still bound, per cent of control>
86

$$$$
>  <Smiles data>
O=C1Nc2cc(Br)ccc2/C1=C1/Nc2ccccc2/C1=N\O

>  <Tested on>
NEK1 (human) (UniProt Q96PY6)

>  <Unit string>
%

>  <kinase still bound, per cent of control>
70

$$$$
>  <Smiles data>
Cc1cnc(-c2cnc(NCCNc3ccc(C#N)cn3)nc2-c2ccc(Cl)cc2Cl)[nH]1

>  <Tested on>
NEK1 (human) (UniProt Q96PY6)

>  <Unit string>
%

>  <kinase still bound, per cent of control>
79

$$$$
>  <Smiles data>
COc1ccc(CNC(=O)Nc2ncc([N+](=O)[O-])s2)cc1

>  <Tested on>
NEK1 (human) (UniProt Q96PY6)

>  <Unit string>
%

>  <kinase still bound, per cent of control>
100

$$$$

----------
Recorded kinase still bound, per cent of control values for a group of molecules are listed next.
# Tested on: EIF2AK4 KD2 (human), Q9P2K8 [S808G]
# Sequence (Q9P2K8 whole entry S808G, looked up): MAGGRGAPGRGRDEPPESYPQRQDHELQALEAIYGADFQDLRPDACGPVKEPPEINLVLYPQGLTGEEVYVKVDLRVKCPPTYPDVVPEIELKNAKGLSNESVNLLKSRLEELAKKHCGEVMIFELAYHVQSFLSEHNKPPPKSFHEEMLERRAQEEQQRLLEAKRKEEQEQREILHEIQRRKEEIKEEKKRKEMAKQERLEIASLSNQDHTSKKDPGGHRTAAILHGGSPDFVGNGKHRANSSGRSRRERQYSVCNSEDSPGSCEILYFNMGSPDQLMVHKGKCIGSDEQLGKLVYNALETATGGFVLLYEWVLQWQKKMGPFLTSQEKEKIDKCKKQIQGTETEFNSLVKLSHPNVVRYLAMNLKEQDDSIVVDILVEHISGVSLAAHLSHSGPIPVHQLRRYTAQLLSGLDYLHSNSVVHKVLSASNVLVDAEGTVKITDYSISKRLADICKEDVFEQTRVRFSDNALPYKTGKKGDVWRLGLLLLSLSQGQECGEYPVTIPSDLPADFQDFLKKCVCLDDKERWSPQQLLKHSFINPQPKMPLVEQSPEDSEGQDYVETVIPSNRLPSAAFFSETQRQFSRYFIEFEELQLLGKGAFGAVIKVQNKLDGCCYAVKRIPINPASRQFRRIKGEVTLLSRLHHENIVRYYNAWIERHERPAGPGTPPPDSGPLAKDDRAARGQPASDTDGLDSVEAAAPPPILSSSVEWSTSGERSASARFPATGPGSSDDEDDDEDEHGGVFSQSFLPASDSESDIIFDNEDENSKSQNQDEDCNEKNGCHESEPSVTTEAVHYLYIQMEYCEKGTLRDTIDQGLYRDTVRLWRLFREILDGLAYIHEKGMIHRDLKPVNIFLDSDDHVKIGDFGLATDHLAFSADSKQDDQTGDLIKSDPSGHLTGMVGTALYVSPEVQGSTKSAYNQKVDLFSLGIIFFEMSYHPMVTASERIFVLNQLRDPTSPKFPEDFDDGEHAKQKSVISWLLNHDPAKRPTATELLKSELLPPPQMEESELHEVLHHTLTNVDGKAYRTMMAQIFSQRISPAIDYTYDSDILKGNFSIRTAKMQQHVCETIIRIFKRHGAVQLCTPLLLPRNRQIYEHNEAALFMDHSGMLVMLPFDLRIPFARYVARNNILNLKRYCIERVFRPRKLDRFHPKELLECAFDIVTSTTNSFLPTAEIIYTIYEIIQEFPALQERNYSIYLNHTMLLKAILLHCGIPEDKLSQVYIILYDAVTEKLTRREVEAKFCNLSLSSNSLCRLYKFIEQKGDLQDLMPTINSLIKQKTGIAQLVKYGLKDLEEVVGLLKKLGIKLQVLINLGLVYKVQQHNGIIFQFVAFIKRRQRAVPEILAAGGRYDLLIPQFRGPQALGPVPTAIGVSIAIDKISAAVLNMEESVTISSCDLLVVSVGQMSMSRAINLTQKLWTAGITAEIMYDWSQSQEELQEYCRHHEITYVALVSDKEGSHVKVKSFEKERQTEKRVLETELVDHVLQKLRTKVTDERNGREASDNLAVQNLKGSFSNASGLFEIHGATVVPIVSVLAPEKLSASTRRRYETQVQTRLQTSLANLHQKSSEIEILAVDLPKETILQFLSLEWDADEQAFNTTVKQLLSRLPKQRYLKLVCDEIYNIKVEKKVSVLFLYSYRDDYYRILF
# Procedure summary: KINOMEscan competition binding
# Condition info: compound 10.0 µM
Property label: kinase still bound, per cent of control (%)

>  <Smiles data>
O=C1Nc2cc(Br)ccc2/C1=C1/Nc2ccccc2/C1=N\O

>  <Test result>
14

$$$$
>  <Smiles data>
Cc1cnc(-c2cnc(NCCNc3ccc(C#N)cn3)nc2-c2ccc(Cl)cc2Cl)[nH]1

>  <Test result>
100

$$$$
>  <Smiles data>
Cn1cc(C2=C(c3ccc(Cl)cc3Cl)C(=O)NC2=O)c2ccccc21

>  <Test result>
100

$$$$
>  <Smiles data>
COc1ccc(CNC(=O)Nc2ncc([N+](=O)[O-])s2)cc1

>  <Test result>
100

$$$$

----------
kinase still bound, per cent of control for assorted compounds
# Tested on: AKT3 (human) (UniProt Q9Y243)
# Procedure summary: KINOMEscan competition binding
# Condition info: compound 10.0 µM

>  <Smiles data>
COc1ccc(CNC(=O)Nc2ncc([N+](=O)[O-])s2)cc1

>  <Tested on>
AKT3 (human) (UniProt Q9Y243)

>  <Unit string>
%

>  <kinase still bound, per cent of control>
92

$$$$
>  <Smiles data>
Cc1cnc(-c2cnc(NCCNc3ccc(C#N)cn3)nc2-c2ccc(Cl)cc2Cl)[nH]1

>  <Tested on>
AKT3 (human) (UniProt Q9Y243)

>  <Unit string>
%

>  <kinase still bound, per cent of control>
100

$$$$
>  <Smiles data>
O=C1Nc2cc(Br)ccc2/C1=C1/Nc2ccccc2/C1=N\O

>  <Tested on>
AKT3 (human) (UniProt Q9Y243)

>  <Unit string>
%

>  <kinase still bound, per cent of control>
100

$$$$
>  <Smiles data>
Cn1cc(C2=C(c3ccc(Cl)cc3Cl)C(=O)NC2=O)c2ccccc21

>  <Tested on>
AKT3 (human) (UniProt Q9Y243)

>  <Unit string>
%

>  <kinase still bound, per cent of control>
100

$$$$
